MEASUREMENT TARGET: rM4 (Rattus norvegicus)
Sequence (P08485 whole entry): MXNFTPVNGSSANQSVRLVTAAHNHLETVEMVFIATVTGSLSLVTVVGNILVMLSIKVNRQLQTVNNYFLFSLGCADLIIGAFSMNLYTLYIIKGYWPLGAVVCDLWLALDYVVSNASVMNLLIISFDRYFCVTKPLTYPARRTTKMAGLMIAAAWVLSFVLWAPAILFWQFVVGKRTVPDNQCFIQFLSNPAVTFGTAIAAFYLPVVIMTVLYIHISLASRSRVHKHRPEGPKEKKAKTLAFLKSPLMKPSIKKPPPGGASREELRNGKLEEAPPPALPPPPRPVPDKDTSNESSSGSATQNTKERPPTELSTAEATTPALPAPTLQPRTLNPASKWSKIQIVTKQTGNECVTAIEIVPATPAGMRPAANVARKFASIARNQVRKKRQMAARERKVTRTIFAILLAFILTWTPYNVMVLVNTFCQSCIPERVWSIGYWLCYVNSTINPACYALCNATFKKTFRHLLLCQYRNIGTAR
ASSAY NAME: activity at rat mAChRs, rM4
CONDITION PARAMETERS: rM4 pIC50
MEASUREMENT LABEL: IC50 (nM)
Respond with the bare value in nM.

Query: Tell me the measured IC50 of Cc1noc(C)c1S(=O)(=O)N1CCN(c2ccc(N3CCCC(C)(C)C3)nn2)CC1 [Compound 14n] , please.
Reply: 372

---

Quick list: hM4 % ACh Min ±SEM per entry.
MEASUREMENT TARGET: UniProt:P08173
Sequence (P08173 whole entry): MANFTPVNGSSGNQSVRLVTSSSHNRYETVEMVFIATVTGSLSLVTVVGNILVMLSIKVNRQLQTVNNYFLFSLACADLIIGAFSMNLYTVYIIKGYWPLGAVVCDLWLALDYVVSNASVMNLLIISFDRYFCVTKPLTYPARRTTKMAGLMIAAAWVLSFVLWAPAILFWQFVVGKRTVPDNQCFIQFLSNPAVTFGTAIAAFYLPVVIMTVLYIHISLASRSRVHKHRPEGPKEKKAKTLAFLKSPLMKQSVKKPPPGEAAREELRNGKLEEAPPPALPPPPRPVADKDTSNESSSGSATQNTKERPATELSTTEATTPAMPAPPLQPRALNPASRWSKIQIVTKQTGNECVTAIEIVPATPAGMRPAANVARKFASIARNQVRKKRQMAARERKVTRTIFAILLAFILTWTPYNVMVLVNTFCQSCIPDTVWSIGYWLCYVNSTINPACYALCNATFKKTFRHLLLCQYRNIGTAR
ASSAY NAME: calcium mobilization assay, hM4/Gqi5 CHO cells, ACh EC80
Format: cell-based
CONDITION PARAMETERS: presence of ACh EC80
Respond with the bare value in % ACh Min.

1. O=C1CCCCN1c1ccc(N2CCN(S(=O)(=O)c3ccccc3Cl)CC2)nn1 [Compound 14o]
51
2. C[C@H]1COCCN1c1ccc(N2CCN(S(=O)(=O)c3ccc4c(c3)OCO4)CC2)nn1 [Compound 14b]
63
3. C[C@H]1COCCN1c1ccc(N2CCN(S(=O)(=O)c3ccccc3Cl)CC2)nn1 [Compound 14a]
56

Query: Tell me the measured hM4 % ACh Min ±SEM of Cc1noc(C)c1S(=O)(=O)N1CCN(c2ccc(N3CCOC[C@@H]3C)nn2)CC1 [Compound 14c] , please.
Reply: 66
